Molecular target: cynomolgus BCMA (cynomolgus (given as cyBCMA, Cyno))
Sequence (chain, as listed by the source): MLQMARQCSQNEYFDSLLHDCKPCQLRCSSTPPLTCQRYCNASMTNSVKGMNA
Assay: SPR, IgG immobilized, cyno BCMA analyte, 37 C
pKd: −log10 of the molar value.

# Binder, pKd
measured = [
    ("A02_Rd4_0.6nM_C06 (antibody, V domains shown) VH: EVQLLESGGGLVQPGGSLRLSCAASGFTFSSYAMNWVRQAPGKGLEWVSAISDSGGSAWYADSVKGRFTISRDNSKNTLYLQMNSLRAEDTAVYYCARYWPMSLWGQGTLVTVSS VL: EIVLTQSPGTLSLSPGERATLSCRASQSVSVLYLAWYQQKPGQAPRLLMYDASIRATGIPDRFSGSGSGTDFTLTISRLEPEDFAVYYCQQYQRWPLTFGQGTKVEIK", 10.24),
]
